- Test system: souris
- experimental-context: mouse, in vivo, po, 11520 min
Provide the recorded DL0 for the entries that follow.
Kindly provide the numeric value in mg/kg only, without the unit symbol.

Tested system souris; DL0 recorded for CC(C)NCC(O)c1cccc2c1CC(=O)N2 (centres unmarked) was 200

Tested system souris; DL0 recorded for O=C1Cc2c(cccc2C(O)CNCC2CC2)N1 (centres unmarked) was 200

Tested system souris; DL0 recorded for CCCNCC(O)c1cccc2c1CC(=O)N2 (centres unmarked) was 200
